The measurements presented in this section are drawn from patent US11247985B2.

- Assayed Target: UniProt:P55072
- Experiment: p97 ADP-Glo assay
- Type: biochemical
- Condition Context: Table 3; read-out: ADPGlo IC50
pIC50: −log10 of the molar value.
Criterion: pIC50 meeting or surpassing 6. Met: 1.0. Not met: 0.0.

Past entries and their recorded results:
{"Structure As Smiles": "CNC(=O)c1ccc2[nH]c(-c3cccc(N4CCC(NCCN5CCN(C(C)C)CC5)CC4)c3)cc2c1", "Class": 1.0}
{"Structure As Smiles": "CC(C)[C@H]1CC[C@H](NC2CCN(c3cccc(-c4cc5cc(C#N)ccc5[nH]4)c3)CC2)CC1", "Class": 0.0}
{"Structure As Smiles": "COC(=O)c1ccc2[nH]c(-c3cccc(N4CCC(NCCN5CCN(C(C)C)CC5)CC4)c3)cc2c1", "Class": 1.0}
{"Structure As Smiles": "CN1CCN(C2(CNC3CCN(c4cccc(-c5cc6cc(C#N)ccc6[nH]5)c4)CC3)CCC2)CC1", "Class": 1.0}

Check if pIC50 >= 6 (inclusive). Item: CC(C)N1CCN(CCNC2CCN(c3cccc(-c4cc5cc(S(F)(F)(F)(F)F)ccc5[nH]4)c3)CC2)CC1
0.0

Check if pIC50 >= 6 (inclusive). Item: CC(C)N1CCN(CCNC2CCN(c3cccc(-c4cc5ccc(C#N)cc5[nH]4)c3)CC2)CC1
0.0

Check if pIC50 >= 6 (inclusive). Item: C[C@@H]1CN(CCNC2CCN(c3cccc(-c4cc5ccccc5[nH]4)c3)CC2)C[C@H](C)N1C
1.0

Check if pIC50 >= 6 (inclusive). Item: Cc1c(-c2cccc(N3CCC(NCCN4CCN(C(C)C)CC4)CC3)c2)[nH]c2ccccc12
0.0

----------
- Assayed Target: p97 ATPase WT (Homo sapiens (Human), UniProt P55072)
- Sequence (P55072 whole entry): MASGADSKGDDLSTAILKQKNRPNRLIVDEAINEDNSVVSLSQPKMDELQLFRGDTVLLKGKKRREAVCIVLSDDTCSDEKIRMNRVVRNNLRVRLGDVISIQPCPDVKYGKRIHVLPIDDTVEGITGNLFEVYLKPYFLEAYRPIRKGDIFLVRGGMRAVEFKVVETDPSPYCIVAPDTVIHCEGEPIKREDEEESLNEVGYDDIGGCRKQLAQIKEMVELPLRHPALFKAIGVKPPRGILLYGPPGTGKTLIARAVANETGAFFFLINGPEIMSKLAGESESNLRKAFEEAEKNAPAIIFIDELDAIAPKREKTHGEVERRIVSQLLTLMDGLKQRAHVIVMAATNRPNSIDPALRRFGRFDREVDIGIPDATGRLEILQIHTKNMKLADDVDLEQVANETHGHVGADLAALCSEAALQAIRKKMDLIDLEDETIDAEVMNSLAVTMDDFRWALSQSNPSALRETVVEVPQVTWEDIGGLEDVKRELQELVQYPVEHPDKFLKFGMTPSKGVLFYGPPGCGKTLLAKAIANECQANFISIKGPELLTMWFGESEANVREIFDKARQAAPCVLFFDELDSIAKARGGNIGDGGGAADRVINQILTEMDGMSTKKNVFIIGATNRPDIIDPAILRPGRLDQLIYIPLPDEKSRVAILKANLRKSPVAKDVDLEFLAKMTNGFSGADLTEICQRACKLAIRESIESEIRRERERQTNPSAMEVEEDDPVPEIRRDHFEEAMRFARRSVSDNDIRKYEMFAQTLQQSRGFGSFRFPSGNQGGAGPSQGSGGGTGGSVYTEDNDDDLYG
- Experiment: p97 ADP-Glo assay
- Format: biochemical
- Condition Context: Table 3; read-out: ADPGlo IC50
Recorded IC50, one value per entry.
Entry format: amount then unit.

Use the examples below as a reference point.
{"Structure As Smiles": "CC(C)N1CCN(CCNC(=O)CC2CCN(c3cccc(-c4cc5ccccc5[nH]4)c3)CC2)CC1", "IC50": "7340 nM"}
{"Structure As Smiles": "Cc1ccc(N2CCC(NC3CCN(C)CC3)CC2)cc1-c1cc2cc(F)ccc2[nH]1", "IC50": "82 nM"}
{"Structure As Smiles": "CC(C)N1CCN(CCNC2CCN(c3cccc(-c4[nH]c5ccc(F)cc5c4-c4c(-c5cccc(N6CCC(NCCN7CCN(C(C)C)CC7)CC6)c5)[nH]c5ccc(F)cc45)c3)CC2)CC1", "IC50": "9300 nM"}
{"Structure As Smiles": "CN1CCN(CCCNC2CCN(c3cccc(-c4cc5ccccc5[nH]4)c3)CC2)CC1", "IC50": "210 nM"}
{"Structure As Smiles": "CC(C)N1CCC(NC2CCN(c3cccc(-c4cc5cc(S(C)(=O)=O)ccc5[nH]4)c3)CC2)CC1", "IC50": "20000 nM"}

// IC50 lookup, key: CCOC(=O)Nc1cccc(N2CCC(NCCN3CCN(C(C)C)CC3)CC2)c1
1700 nM

// IC50 lookup, key: CN1CCN(CCNC2CCN(c3cccc(-c4cc5ccccc5[nH]4)c3)CC2)CC1
380 nM

// IC50 lookup, key: CC(C)N1CCN(C2(CNC(=O)C3CCN(c4cccc(-c5cc6cc(F)ccc6[nH]5)c4)CC3)CCC2)CC1
3800 nM

----------
- Assayed Target: p97 ATPase WT (Homo sapiens (Human))
- Experiment: p97 ADP-Glo assay
- Type: biochemical
- Condition Context: Table 3; read-out: ADPGlo IC50
Recorded pIC50, one value per entry.
Quick note: pIC50 values are minus log10 of concentrations in mol/L.

{"Compound": "CC(C)N1CCN(CCNC2CCN(c3cccc(-c4cc5ccccc5s4)c3)CC2)CC1", "Assayed Target": "p97 ATPase WT (Homo sapiens (Human))", "pIC50": 4.62}

// pIC50 lookup, key: CC(C)N1CCN(CCNC2CCN(c3cccc(-c4cc5cc(N=[N+]=[N-])ccc5[nH]4)c3)CC2)CC1
6.70

// pIC50 lookup, key: CC(C)N1CCC(NC2CCN(c3cccc(-c4cc5cc(F)ccc5[nH]4)c3)CC2)CC1
7.31

// pIC50 lookup, key: CC(C)N1CCN(C(=O)CCNC2CCN(c3cccc(-c4cc5cc(F)ccc5[nH]4)c3)CC2)CC1
6.92

// pIC50 lookup, key: c1cc(-c2cc3ccccc3[nH]2)cc(N2CCC(NCCN3CCN(CC4CC4)CC3)CC2)c1
6.77

// pIC50 lookup, key: Cc1ccc(N2CCC(NC3CCN(C(C)C)CC3)CC2)cc1-c1cc2ccccc2[nH]1
6.30

// pIC50 lookup, key: CC(C)(C)OC(=O)N1CCCN(CCNC2CCN(c3cccc(-c4cc5ccccc5[nH]4)c3)CC2)CC1
5.96

// pIC50 lookup, key: CC(C)N1CCC(NC2CCN(c3cccc(-c4cc5cc(S(N)(=O)=O)ccc5[nH]4)c3)CC2)CC1
5.07

// pIC50 lookup, key: CC(C)N1CCC(NC2CCN(c3cccc(-c4cc5ccccc5[nH]4)c3)CC2)CC1
6.89

// pIC50 lookup, key: CN1CCN(C(=O)CCNC2CCN(c3cccc(-c4cc5ccccc5[nH]4)c3)CC2)CC1
6.54

----------
- Assayed Target: p97 ATPase WT (Homo sapiens (Human))
- Experiment: p97 ADP-Glo assay
- Assay type: biochemical
- Condition Context: Table 3; read-out: ADPGlo IC50
Quantity Name: pIC50
Quick note: pIC50 values are minus log10 of concentrations in mol/L.

Use the examples below as a reference point.
{"Structure As Smiles": "CC(C)N1CCCN(CCNC2CCN(c3cccc(-c4cc5ccccc5[nH]4)c3)CC2)CC1", "Quantity Name": "pIC50", "Readout Number": 6.82}
{"Structure As Smiles": "Cc1ccc(N2CCC(NCC3(N4CCN(C(C)C)CC4)CCC3)CC2)cc1-c1cc2cc(C#N)ccc2[nH]1", "Quantity Name": "pIC50", "Readout Number": 7.00}
{"Structure As Smiles": "Cc1c(-c2cccc(N3CCC(NC4CCN(C)CC4)CC3)c2)[nH]c2ccccc12", "Quantity Name": "pIC50", "Readout Number": 4.66}
{"Structure As Smiles": "Cn1ncnc1CCNC1CCN(c2cccc(-c3cc4ccccc4[nH]3)c2)CC1", "Quantity Name": "pIC50", "Readout Number": 6.09}
{"Structure As Smiles": "CC(C)N1CCN(CCNC2CCN(c3cccc(-c4cc5cc(O)ccc5[nH]4)c3)CC2)CC1", "Quantity Name": "pIC50", "Readout Number": 7.00}

// pIC50 lookup, key: NC(=O)CCNC1CCN(c2cccc(-c3cc4cc(F)ccc4[nH]3)c2)CC1
6.12

// pIC50 lookup, key: CC(C)N1CCN(CCNC2CCN(c3cccc(-c4cc5cc(C(F)(F)F)ccc5[nH]4)c3)CC2)CC1
5.22

// pIC50 lookup, key: O=C(CCNC1CCN(c2cccc(-c3cc4cc(F)ccc4[nH]3)c2)CC1)N1CCCCC1
5.85

// pIC50 lookup, key: c1cc(-c2cc3ccccc3[nH]2)cc(N2CCC(NCCCN3CCOCC3)CC2)c1
6.10

----------
- Assayed Target: p97 ATPase WT (Homo sapiens (Human))
- Experiment: p97 ADP-Glo assay
- Type: biochemical
- Condition Context: Table 3; read-out: ADPGlo IC50
Recorded pIC50, one value per entry.
Quick note: pIC50 values are minus log10 of concentrations in mol/L.

Use the examples below as a reference point.
{"Structure As Smiles": "CN(C)CCNC1CCN(c2cccc(-c3cc4cc(F)ccc4[nH]3)c2)CC1", "pIC50": 6.15}
{"Structure As Smiles": "c1cc(-c2cc3ccccc3[nH]2)cc(N2CCC(NCc3ccncc3)CC2)c1", "pIC50": 5.85}

For the next question, use this compound.
// pIC50 lookup, key: COC(=O)CCNC1CCN(c2cccc(-c3cc4cc(F)ccc4[nH]3)c2)CC1
5.89

----------
- Assayed Target: p97 ATPase WT (Homo sapiens (Human))
- Experiment: p97 ADP-Glo assay
- Format: biochemical
- Condition Context: Table 3; read-out: ADPGlo IC50
- Source text: ADP-Glo™ (Promega Corp.) is a bioluminescent, homogeneous assay that measures ADP formed from a biochemical reactions. Because of its high sensitivity, the assay is suitable for monitoring enzyme activities at very early substrate conversions requiring very low amount of enzymes. The ADP-Glo assay can be conducted as described in Chou, T.-F.; Bulfer, S. L.; Weihl, C.
pIC50: −log10 of the molar value.
Criterion: pIC50 meeting or surpassing 6. Met: Satisfied. Not met: Not satisfied.

Past entries and their recorded results:
{"Molecule": "Fc1ccc2[nH]c(-c3cccc(N4CCC(NCCc5c[nH]c6ccccc56)CC4)c3)cc2c1", "Class": "Not satisfied"}
{"Molecule": "CCC(C)N1CCN(CCCNC2CCN(c3cccc(-c4cc5ccccc5[nH]4)c3)CC2)CC1 (centres unmarked)", "Class": "Satisfied"}
{"Molecule": "CN1CCN(C(=O)CCNC2CCN(c3cccc(-c4cc5cc(F)ccc5[nH]4)c3)CC2)CC1", "Class": "Satisfied"}
{"Molecule": "Cc1ccc(N2CCC(NCC3(N4CCN(C(C)C)CC4)CCC3)CC2)cc1-c1cc2cc(F)ccc2[nH]1", "Class": "Satisfied"}

Check if pIC50 >= 6 (inclusive). Item: CON(C)C(=O)c1ccc2[nH]c(-c3cccc(N4CCC(NCCN5CCN(C(C)C)CC5)CC4)c3)cc2c1
Not satisfied

Check if pIC50 >= 6 (inclusive). Item: COC(=O)c1ccc2[nH]c(-c3cccc(N4CCC(NC5CCN(C(C)C)CC5)CC4)c3)cc2c1
Satisfied

Check if pIC50 >= 6 (inclusive). Item: CN1CCN(C(=O)CCNC2CCN(c3cccc(-c4cc5cc(C#N)ccc5[nH]4)c3)CC2)CC1
Satisfied
